Source: patent US20230159510A1

Exercise: for every item that follows, state its recorded IC50.
System: HCT116 WT cells
testMethodNotes: HCT116 proliferation assay, WT cells (CellTiter-Glo, 6 days)
Type: cell-based
experimentalSetup: Homo sapiens, HCT-116, 144 h, read-out: Prolif_HCT116-WT IC50

Lookup result for Cc1cc2cc(C(=O)N(Cc3ccc(N4CCC(C(N)=O)CC4)cc3)Cc3scnc3C)ccc2nc1N ; measured IC50: > 10 µM

Lookup result for C[C@H](c1ncccn1)N(Cc1cc2c(cn1)OCCC2)C(=O)c1ccc2nc(N)c(I)cc2c1 (single isomer, unassigned) ; measured IC50: > 10 µM

Lookup result for Cc1cc2c(nc1N)CCC(C(=O)N(Cc1ccc(C(F)(F)F)cn1)Cc1ccnc3[nH]ccc13)C2 (stereo not drawn) ; measured IC50: > 1 µM

Lookup result for Cc1cc2cc(C(=O)N(Cc3ccc(C(F)(F)F)cn3)C[C@H](C)C(F)(F)F)ccc2nc1N ; measured IC50: > 10 µM

Lookup result for N#CC1(CN(Cc2ccc(C(F)(F)F)cn2)C(=O)c2ccc3nc(N)c(Br)cc3c2)CC1 ; measured IC50: > 10 µM

Lookup result for Cc1cc2cc(C(=O)N(Cc3ccc(C(F)(F)F)cn3)CC3CCc4[nH]cnc4C3)ccc2nc1N (stereo not drawn) ; measured IC50: > 1 µM

Lookup result for CCOC(C)CN(Cc1ccc(C(F)(F)F)cn1)C(=O)c1ccc2nc(N)c(C)cc2c1 (stereo not drawn) ; measured IC50: > 1 µM

Lookup result for Cc1cc2cc(C(=O)N(Cc3ccc(C(F)(F)F)cn3)[C@H](C)c3ncccc3F)cnc2nc1N ; measured IC50: > 10 µM

Lookup result for Cc1cc2cc(C(=O)N(Cc3ccc(C(F)(F)F)cn3)C3CCCc4nn(C)cc43)ccc2nc1N (stereo not drawn) ; measured IC50: > 1.3 µM
